- System: TK-10 renal
- Protocol: NCI-60 one-dose screen, 48 h
- Setup conditions: 10 µM unless noted
The panel holds about 83,000 compounds, 20% with a hit somewhere; the sample as a whole holds those more often. Calls of active or inactive are those of the source. Rule for the calls: active = growth percent below 10; inactive = the rest.
One label from this list, please: active, inactive

Ask: What call does the record list for Cc1ccc2sc3c(NCCCNCCO)nc4ccccc4c3c(=O)c2c1 ?
Result: inactive

Ask: Outcome? CNCCNc1nc2ccccc2c2c(=O)c3cc(OC)ccc3sc12
Result: active

Ask: Outcome logged for CCCCC1CCc2cccc3c(SCC(=O)N(C)c4ccc(Cl)cc4)cc[n+]1c23 (stereo unspecified) in this assay:
Result: inactive

Ask: Write down the call the test reported for this compound. Item: COc1ccc(-c2cn[nH]c2-c2ccc(OC)c(O)c2)cc1
Result: inactive

Ask: Look up the recorded call for COc1cccc2c(=O)c3c(sc12)c(NCCCNCCO)nc1ccccc13 in this test.
Result: inactive

Ask: Which result was noted for this compound in the test: O=C(/C=C/c1ccc(Cl)cc1)c1ccc(Nc2nc(NCCO)nc(N3CCOCC3)n2)cc1
Result: inactive

Ask: Short answer needed: outcome of this test for COc1cc(/C=C2\CN(C)C/C(=C\c3cc(CN4CCCCC4)c(O)c(OC)c3)C2=O)cc(CN2CCCCC2)c1O ?
Result: inactive

Ask: Could you check what this test reported for N#C/C(=C\c1c(-c2ccccc2)[nH]c2ccccc12)C(=O)c1ccccc1 ?
Result: inactive

Ask: Dear colleague, could you share the recorded outcome for COc1ccc(OC)c(NC(=O)/C(C#N)=C/c2ccco2)c1 when you have a moment?
Result: inactive

Ask: What did the test return for O=c1oc2ccc(I)cc2c(=O)n1-c1ccc(I)cc1F ?
Result: inactive

Ask: Recorded call for CCn1c(-c2nonc2Nc2ccc(OC)cc2)nc2ccccc21 ?
Result: inactive

Ask: Dear colleague, could you share the recorded outcome for O=C(CSc1ccc2nnc(-c3cccc(F)c3)n2n1)Nc1ccc2c(c1)OCO2 when you have a moment?
Result: inactive

Ask: I'd appreciate the recorded outcome for O=C(Nc1ccc(-c2nc3cc4ccccc4cc3[nH]2)cc1)c1cccc(Br)c1 from this test.
Result: inactive

Ask: Check the results log: what was the call for CC(C)CCNCC(O)Cn1c2ccccc2c2ccccc21 (stereo unspecified) ?
Result: inactive

Ask: Call for entry COc1c2ccoc2c(/C=C/C=O)c2oc(-c3ccccc3)cc(=O)c12 :
Result: inactive

Ask: Recorded call for CCn1c(Cc2ccccc2Nc2c(Cl)cccc2Cl)nnc1SCC(=O)NN1C(=O)/C(=C/c2cccc(OC)c2OC)SC1=S ?
Result: inactive

Ask: Short answer needed: outcome of this test for COC(=O)c1cc2c(n1Cc1ccccc1)-c1oncc1CCC2 ?
Result: inactive

Ask: Which outcome did this test record for the compound CCOC(=O)c1sc(-c2ccc(OS(=O)(=O)C[C@]34CCC(CC3=O)C4(C)C)c(C=O)c2)nc1C ?
Result: active

Ask: Query: recorded result category for Cc1sc2ncn(CC(=O)Nc3ccc(S(N)(=O)=O)cc3)c(=O)c2c1C in this test
Result: inactive

Ask: Check the results log: what was the call for COC(=O)c1c2c(c(C)[n+]([O-])c1C)C(=O)C(NCc1ccc(Br)cc1)=CC2=O ?
Result: inactive

Ask: Check the results log: what was the call for c1ccc(-c2ccc(-c3nc4ccccc4[nH]3)cc2)cc1 ?
Result: inactive
